Data credit: patent US20230089247A1

- Assay target: PCSK9 (Homo sapiens, UniProt Q8NBP7)
- Sequence (Q8NBP7 153-692): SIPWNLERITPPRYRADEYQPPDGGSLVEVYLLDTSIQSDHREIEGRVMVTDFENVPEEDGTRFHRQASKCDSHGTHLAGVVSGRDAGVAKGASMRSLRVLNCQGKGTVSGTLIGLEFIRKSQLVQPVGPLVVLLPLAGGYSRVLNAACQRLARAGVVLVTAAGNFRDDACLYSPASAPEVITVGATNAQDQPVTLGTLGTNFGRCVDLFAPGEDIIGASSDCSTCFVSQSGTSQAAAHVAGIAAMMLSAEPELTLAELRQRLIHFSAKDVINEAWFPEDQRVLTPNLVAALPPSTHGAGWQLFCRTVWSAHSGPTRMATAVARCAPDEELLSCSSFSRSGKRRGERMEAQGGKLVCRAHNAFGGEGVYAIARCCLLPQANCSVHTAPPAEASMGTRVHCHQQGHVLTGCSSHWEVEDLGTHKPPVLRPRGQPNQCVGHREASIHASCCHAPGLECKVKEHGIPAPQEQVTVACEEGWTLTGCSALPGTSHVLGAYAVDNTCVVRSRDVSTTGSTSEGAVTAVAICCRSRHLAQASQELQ
- Assay overview: BODIPY-LDL uptake assay in HepG2 cells
- Format: cell-based
- Particulars: 30 μM test compound, 5 μg/ml PCSK9, BODIPY-LDL
Measured attribute: % increase in LDL Uptake (%)
Numbers only, in %.

Some molecules with recorded % increase in LDL Uptake:
COC1(c2ccc(C(=O)N3CCN(c4ccc(C(F)(F)F)cn4)CC3)cc2)COC1 [Example 218] : 85
COC1(c2cccc(NC(=O)N3CC4CN(c5ccc(C(F)(F)F)cc5)CC4C3)c2)COC1 (stereo not shown) [Example 183] : 88
O=C(c1ccc(C2(O)COC2)cc1)N1CCc2nc(-c3ccc(C(F)(F)F)cc3)sc2C1 [Example 175] : 0
O=C(Nc1cccc(C2(O)COC2)c1)N1CC2CN(c3ccc(C(F)(F)F)cc3)CC2C1 (stereo not shown) [Example 182] : 60
CC(C)OC1(c2ccc(C(=O)N3CC4CN(c5ccc(C(F)(F)F)cc5)CC4C3)cc2)COC1 (stereo not shown) [Example 136] : 14

State the recorded % increase in LDL Uptake for every item in the following list.
1. [2H]C([2H])([2H])OC1(c2ccc(C(=O)N3CCC(c4ccc(C(F)(F)F)cc4)CC3)cc2)COC1 [Example 76]
2. O=C(c1cncc(C2(O)COC2)c1)N1CCC(c2ccc(C(F)(F)F)cc2)CC1 [Example 49]
3. COC1(c2ccc(NC(=O)N3CC4CN(c5ccc(C(F)(F)F)cc5)CC4C3)cc2)COC1 (stereo not shown) [Example 74]
4. COC1(c2ccc(C(=O)N3CCC(c4ccc(C(F)(F)F)nc4)CC3)cc2)COC1 [Example 213]
5. O=C(c1ccc(C2(O)COC2)cc1)N1Cc2cn(-c3ccc(C(F)(F)F)cc3)nc2C1 [Example 89]
6. N#CC1(c2ccc(C(F)(F)F)cc2)CCN(C(=O)c2ccc(C3(O)COC3)cc2)CC1 [Example 116]
7. CCOC1(c2ccc(C(=O)N3CCC(c4ccc(C(F)(F)F)c(F)c4)CC3)cc2)COC1 [Example 42]

1. 108
2. 74
3. 100
4. 37
5. 159
6. 98
7. 4

State the recorded % increase in LDL Uptake for every item in the following list.
1. COC1(c2ccc(NC(=O)C3CCN(c4ccc(C(F)(F)F)cc4)CC3)cc2)COC1 [Example 60]
2. CC(=O)OC1(c2ccc(C(=O)N3CCC(c4ccc(C(F)(F)F)cc4)CC3)cc2)COC1 [Example 36]

0
17

State the recorded % increase in LDL Uptake for every item in the following list.
1. COC1(c2cccc(C(=O)N3CCCC(c4ccc(C(F)(F)F)cc4)C3)c2)COC1 (stereo not shown) [Example 51]
2. O=C(c1cccc(C2(O)COC2)c1)N1CCCC(c2ccc(C(F)(F)F)cc2)C1 (stereo not shown) [Example 48]

131
234

====

- Assay target: PCSK9 (Homo sapiens)
- Assay overview: BODIPY-LDL uptake assay in HepG2 cells
- Assay type: cell-based
- Particulars: 1 μM test compound, 5 μg/ml PCSK9, BODIPY-LDL
Kindly state % increase in LDL Uptake for each of the entries shown.
Answers are plain numbers, in %.

Some compounds with recorded % increase in LDL Uptake:
COc1ccc(C2CCN(C(=O)c3ccc(C4(O)COC4)cc3)CC2)cc1 [Example 27] : 14
Cn1nc(-c2ccc(C(F)(F)F)cc2)c2c1CN(C(=O)c1ccc(C3(O)COC3)cc1)C2 [Example 20] : 0
O=C(c1ccc(C2(O)COC2)cc1)N1CCC(c2ccc(C(F)(F)F)c(Cl)c2)CC1 [Example 32] : 12
CC(C)OC1(c2ccc(C(=O)N3CC4CN(c5ccc(C(F)(F)F)cc5)CC4C3)cc2)COC1 (stereo not shown) [Example 136] : 11
O=C(c1ccc(C2(O)COC2)cc1)N1Cc2cn(-c3ccc(C(F)(F)F)cc3)nc2C1 [Example 89] : 0

State the recorded % increase in LDL Uptake for every item in the following list.
1. O=C(c1ccc(C2(O)COC2)cc1)N1CCC(c2ccc(C(F)F)cc2)CC1 [Example 69]
2. O=C(c1ccc(C2(O)COC2)cc1)N1CCN(c2ccc(C(F)(F)F)cn2)CC1 [Example 216]

1. 0
2. 0

State the recorded % increase in LDL Uptake for every item in the following list.
1. O=C(c1cccc(C2(O)COC2)c1)N1CC2=C(C1)CN(c1ccc(C(F)(F)F)cc1)C2 [Example 96]
2. O=C(c1ccc(C2(O)COC2)cc1)N1CCC(c2ccccc2C(F)(F)F)CC1 [Example 33]
3. CCOC1(c2ccc(C(=O)N3CCC(c4ccc(C(F)(F)F)cc4)CC3)cc2)CSC1 [Example 148]

1: 0; 2: 59; 3: 20

State the recorded % increase in LDL Uptake for every item in the following list.
1. COC1(c2cccc(C(=O)N3CC4CN(c5ccc(C(F)(F)F)cn5)CC4C3)c2)COC1 (stereo not shown) [Example 208]
2. N#CC1(c2ccc(C(F)(F)F)cc2)CCN(C(=O)c2ccc(C3(O)COC3)cc2)CC1 [Example 116]
3. CCS(=O)(=O)CCOC1(c2ccc(C(=O)N3CCC(c4ccc(C(F)(F)F)cc4)CC3)cc2)COC1 [Example 190]
4. O=C(c1ccc(C2(O)COC2)cc1)N1CCC(c2ccc(O)cc2)CC1 [Example 63]
5. O=C(c1ccc(C2(O)COC2)cc1)N1CCc2cc(-c3ccc(C(F)(F)F)cc3)ccc21 [Example 107]
6. CC(C)(CCCCCOC1(c2ccc(C(=O)N3CCC(c4ccc(C(F)(F)F)cc4)CC3)cc2)COC1)C(=O)O [Example 109]

1. 56
2. 7
3. 0
4. 12
5. 27
6. 5
